Test system: IL-6
assay-text: IL-6 in supernatants of LPS-primed, nigericin-treated THP1 macrophages, Hu IL-6 AlphaLISA
Format: cell-based
applied-conditions: Homo sapiens, THP-1, PMA-differentiated, 1 hr compound, Nigericin 6.7 uM 3 hrs, IL-6 in supernatant
Procedure: NLRP3 Inflammasome Activation and Cell Viability Assessment in THP1 Macrophages […] Thereafter, 30 ul samples of cells' supernatants were collected for cytokine analysis which was conducted on Hu IL-1β AlphaLISA (Perkin Elmer, cat #AL220C) and Hu IL-6 AlphaLISA (Perkin Elmer, cat #AL220C). The cells' viability was assessed by performing CellTiter-Glo Luminescent Assay (Promega, cat #G7572) according to the manufacturer's protocol.
quantity-measured: IC50

Task: Any idea what its IC50 is? The compound is Cc1cc(C#N)cc(O)c1-c1nnc(N[C@@H]2CCCN(C)C2)c2c1cnn2C
Output: ≥ 10 µM

Task: Next: Cn1ccc2c(-c3ccc(C#N)cc3O)nnc(N[C@@H]3CCCN(c4cccnc4)C3)c21
Output: ≥ 10 µM

Task: Next: COCCN1CCC[C@@H](Nc2nnc(-c3ccc(C#N)cc3O)c3ccn(C)c23)C1
Output: ≥ 10 µM

Task: Next: Cc1cc(C#N)cnc1-c1nnc(N[C@@H]2CCCN(C)C2)c2c1ccn2C
Output: ≥ 10 µM

Task: Next: CN1CCC[C@@H](Oc2nnc(-c3ccc(C(F)(F)F)cc3)c3ccoc23)C1
Output: ≥ 10 µM

Task: Next: CN1CCC[C@@H](Nc2nnc(-c3ccc(C(F)(F)F)cn3)c3ccn(C)c23)C1
Output: ≥ 10 µM

Task: Next: CN1CCC[C@@H](Nc2nnc(-c3ccc(C#N)cc3O)c3ccn(C)c23)C1
Output: 5 to 10 µM

Task: Next: CN1CCC[C@@H](Nc2nnc(-c3ccc(C(F)(F)F)cc3)c3occc23)C1
Output: 1 to 5 µM

====

Exercise: state measured IC50 for each of the compounds provided.
assayed-system: NLRP3 inflammasome (Homo sapiens)
Sequence (Q96P20 whole entry): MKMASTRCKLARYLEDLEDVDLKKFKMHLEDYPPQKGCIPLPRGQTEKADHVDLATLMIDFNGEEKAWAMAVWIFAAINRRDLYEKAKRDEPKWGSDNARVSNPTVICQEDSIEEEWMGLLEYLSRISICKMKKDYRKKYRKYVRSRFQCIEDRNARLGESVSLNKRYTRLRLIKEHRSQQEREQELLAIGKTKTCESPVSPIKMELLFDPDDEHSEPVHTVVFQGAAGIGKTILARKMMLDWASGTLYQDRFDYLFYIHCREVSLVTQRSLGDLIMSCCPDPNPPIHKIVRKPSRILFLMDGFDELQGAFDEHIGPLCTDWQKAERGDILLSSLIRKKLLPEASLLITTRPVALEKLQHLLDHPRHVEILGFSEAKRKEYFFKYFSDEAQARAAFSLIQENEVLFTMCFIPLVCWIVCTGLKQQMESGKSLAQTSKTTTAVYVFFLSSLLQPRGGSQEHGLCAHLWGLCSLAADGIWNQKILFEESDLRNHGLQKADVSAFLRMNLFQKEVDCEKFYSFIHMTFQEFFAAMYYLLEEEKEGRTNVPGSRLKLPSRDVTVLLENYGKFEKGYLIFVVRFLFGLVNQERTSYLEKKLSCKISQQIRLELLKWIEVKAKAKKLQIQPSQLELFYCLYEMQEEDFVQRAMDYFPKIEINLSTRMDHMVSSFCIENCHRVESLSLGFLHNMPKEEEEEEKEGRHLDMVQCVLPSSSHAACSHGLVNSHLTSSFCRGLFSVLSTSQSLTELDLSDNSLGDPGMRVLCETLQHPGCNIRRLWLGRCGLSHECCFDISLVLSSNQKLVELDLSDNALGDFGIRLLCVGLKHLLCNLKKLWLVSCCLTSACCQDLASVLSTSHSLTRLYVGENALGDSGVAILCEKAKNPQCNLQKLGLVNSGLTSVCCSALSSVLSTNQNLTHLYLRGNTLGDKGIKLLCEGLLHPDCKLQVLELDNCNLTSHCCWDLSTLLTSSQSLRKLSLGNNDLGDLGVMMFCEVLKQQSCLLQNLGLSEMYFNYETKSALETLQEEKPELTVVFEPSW
assay-text: NLRP3 inflammasome activation in LPS-primed, nigericin-activated THP1 macrophages, IL-1β AlphaLISA
applied-conditions: PMA-differentiated, 1 hr compound, Nigericin 6.7 uM 3 hrs, IL-1β in supernatant

Task: Any idea what its IC50 is? The compound is Cc1cc(C#N)cnc1-c1nnc(N[C@@H]2CCCN(C)C2)c2c1ccn2C [Compound 132]
Output: 1000 to 10000 nM

Task: Next: CN1CCC[C@@H](Nc2nnc(-c3ccc(F)cc3O)c3ccn(C)c23)C1 [Compound 78]
Output: < 10 nM

Task: Next: Cn1ccc2c(-c3ccc(C#N)cc3O)nnc(N[C@@H]3CCCN(C4COC4)C3)c21 [Compound 160]
Output: 1000 to 10000 nM

Task: Next: Cn1ncc2c(-c3ccc(C(F)(F)F)cc3)nnc(N[C@@H]3CCCN(C4CC4)C3)c21 [Compound 109]
Output: 10 to 100 nM

Task: Next: Cc1cc(C#N)ccc1-c1nnc(N[C@@H]2CCCN(C)C2)c2c1cnn2C [Compound 112]
Output: 10 to 100 nM

Task: Next: Cn1ccc2c(-c3ccc(C#N)cc3O)nnc(N[C@@H]3CCCN(c4cccnc4)C3)c21 [Compound 163]
Output: ≥ 10000 nM

Task: Next: CN1CCC[C@@H](Nc2nnc(-c3ccc(C(F)(F)F)cc3)c3sccc23)C1 [Compound 62]
Output: 10 to 100 nM

Task: Next: CN1CCC[C@@H](Nc2nnc(-c3ccccc3O)c3ccn(C)c23)C1 (single isomer, unassigned) [Compound 17]
Output: 10 to 100 nM

Task: Next: C[N+]1(C)CCC[C@@H](Nc2nnc(-c3ccc(C(F)(F)F)cc3)c3nc[nH]c23)C1 [Compound 92]
Output: ≥ 10000 nM

Task: Next: CN1CCC[C@@H](Oc2nnc(-c3ccc(C(F)(F)F)cc3)c3ccoc23)C1 [Compound 88]
Output: 1000 to 10000 nM

Task: Next: CN1CCC[C@@H](Nc2nnc(-c3ccc(Cl)cc3)c3cc[nH]c23)C1 [Compound 10]
Output: 10 to 100 nM

Task: Next: CN1CCC[C@@H](Nc2nnc(-c3ncc(C#N)cc3Cl)c3cnn(C)c23)C1 [Compound 140]
Output: 1000 to 10000 nM

Task: Next: CN1CCC[C@@H](Nc2nnc(-c3ccc(C(F)(F)F)cc3)c3c2CCC3)C1 [Compound 65]
Output: < 10 nM

Task: Next: CN1CCC[C@@H](Nc2nnc(-c3ccc(C(F)(F)F)cc3)c3c2ccn3C)C1 [Compound 69]
Output: 10 to 100 nM

Task: Next: CN1CCC[C@@H](Nc2nnc(-c3ccc(C(F)(F)F)cc3C(F)F)c3cnn(C)c23)C1 [Compound 119]
Output: 10 to 100 nM

Task: Next: Cc1cc(C(F)(F)F)ccc1-c1nnc(N[C@@H]2CCCN(C)C2)c2c1ccn2C [Compound 123]
Output: < 10 nM

Task: Next: CN1CCC[C@@H](Nc2nnc(-c3ccc(C(F)(F)F)cc3)c3nc[nH]c23)C1 [Compound 20]
Output: 500 to 1000 nM
